Where do the numbers come from? From paper PMC9056950.

biological target: PBP3 (Escherichia coli, UniProt P0AD68); construct: gene ftsI; experiment: biochemical; set-up: Thermal shift assay, Protein Thermal Shift dye, 3 uM E. coli PBP3, change in melting temperature; conditions: read-out: Average DTm/°C
Lab note: compare ΔTm at 300 µM with 3 °C, writing MET if less and NOT MET if equal or more.

Some entries whose results are on file:
- Molecule: "COCC1=C(C(=O)O)N2C(=O)[C@@H](NC(=O)/C(=N\\OC)c3csc(N)n3)[C@H]2SC1 [compound 12, cefpodoxime]"
  Assigned label: "NOT MET"
- Molecule: "CC1=C(C(=O)O)N2C(=O)[C@@H](NC(=O)[C@H](NC(=O)CCCCN)c3ccccc3)[C@H]2SC1 [compound 10]"
  Assigned label: "MET"
- Molecule: "CC1=C(C(=O)O)N2C(=O)[C@@H](NC(=O)[C@H](NC(=O)OC(C)(C)C)c3ccccc3)[C@H]2SC1 [compound 9]"
  Assigned label: "MET"

Could you now consider this next molecule?
Data request: In plain terms, does CC1=C(C(=O)O)N2C(=O)[C@@H](NC(=O)[C@H](NC(=O)COCC(=O)NCCOCCOCCOCCOCCNC(=O)CCCCCN3C(=O)C=CC3=O)c3ccccc3)[C@H]2SC1 [compound 2] come in under 3 °C for ΔTm at 300 µM?
Data returned: NOT MET

* * *

Target: PBP3 (Escherichia coli, UniProt P0AD68)
Construct: gene ftsI
Sequence (P0AD68 44-588): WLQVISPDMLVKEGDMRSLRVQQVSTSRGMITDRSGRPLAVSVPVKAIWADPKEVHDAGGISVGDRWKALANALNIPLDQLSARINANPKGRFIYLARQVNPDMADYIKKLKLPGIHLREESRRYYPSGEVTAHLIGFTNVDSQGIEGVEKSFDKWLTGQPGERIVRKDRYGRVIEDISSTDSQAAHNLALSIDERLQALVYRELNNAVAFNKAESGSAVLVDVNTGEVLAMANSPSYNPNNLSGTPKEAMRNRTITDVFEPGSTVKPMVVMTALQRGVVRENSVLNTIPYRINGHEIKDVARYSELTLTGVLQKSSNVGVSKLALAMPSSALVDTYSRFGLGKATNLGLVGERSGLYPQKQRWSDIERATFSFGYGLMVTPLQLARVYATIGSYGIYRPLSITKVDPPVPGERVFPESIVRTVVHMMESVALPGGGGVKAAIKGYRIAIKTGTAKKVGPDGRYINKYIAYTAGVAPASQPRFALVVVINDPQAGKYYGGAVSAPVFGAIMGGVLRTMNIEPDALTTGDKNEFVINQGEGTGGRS
Assay: biochemical
Parameters: Thermal shift assay, Protein Thermal Shift dye, 3 uM E. coli PBP3, change in melting temperature
Details: read-out: Average DTm/°C
Readout name: ΔTm at 300 µM (°C)
Reply numerically in °C, unit not repeated.

These solved cases illustrate the format of a correct answer.
- Compound: "CC1=C(C(=O)O)N2C(=O)[C@@H](NC(=O)[C@H](NC(=O)CCCC(=O)ON3C(=O)CCC3=O)c3ccccc3)[C@H]2SC1"
  Unit name: "°C"
  ΔTm at 300 µM: 3.21
- Compound: "CC1=C(C(=O)O)N2C(=O)[C@@H](NC(=O)[C@H](NC(=O)CCCC(=O)O)c3ccccc3)[C@H]2SC1"
  Unit name: "°C"
  ΔTm at 300 µM: 3.6
- Compound: "CC(=O)N[C@@H](C(=O)N[C@@H]1C(=O)N2C(C(=O)O)=C(C)CS[C@H]12)c1ccccc1"
  Unit name: "°C"
  ΔTm at 300 µM: 3.01
- Compound: "CC1=C(C(=O)O)N2C(=O)[C@@H](NC(=O)[C@H](N)c3ccccc3)[C@H]2SC1"
  Unit name: "°C"
  ΔTm at 300 µM: 1.61

Alright, here's another compound for you.
Data request: Form field - read-out: ΔTm at 300 µM; system: PBP3 (Escherichia coli, UniProt P0AD68); submitted item: CC1=C(C(=O)O)N2C(=O)[C@@H](NC(=O)[C@H](NC(=O)CCCCC3CCSS3)c3ccccc3)[C@H]2SC1 (some centres unmarked)
Data returned: 3.01

* * *

Biological target: PBP4 (Bacillus subtilis, UniProt P32959)
Sequence (P32959 1-451): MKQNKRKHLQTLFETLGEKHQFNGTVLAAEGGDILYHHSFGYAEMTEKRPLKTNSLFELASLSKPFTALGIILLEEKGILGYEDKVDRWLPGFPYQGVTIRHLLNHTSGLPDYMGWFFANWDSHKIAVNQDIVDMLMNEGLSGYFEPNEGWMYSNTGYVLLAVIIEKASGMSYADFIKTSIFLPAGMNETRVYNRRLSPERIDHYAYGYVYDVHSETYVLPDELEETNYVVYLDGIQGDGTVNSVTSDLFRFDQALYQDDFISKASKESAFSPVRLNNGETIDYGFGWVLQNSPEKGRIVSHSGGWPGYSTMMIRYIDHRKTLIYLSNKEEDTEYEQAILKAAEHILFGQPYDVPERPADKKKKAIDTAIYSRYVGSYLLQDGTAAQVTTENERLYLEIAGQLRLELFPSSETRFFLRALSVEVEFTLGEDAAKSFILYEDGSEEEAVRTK
Test: biochemical
Set-up: gene pbpE; commercial protein from Generon; fluorescent dye thermal shift assay, 500 nM PBP4 with 50 uM compound, delta Tm
Conditions: read-out: Average DTm/°C
Readout name: ΔTm at 50 µM (°C)
Report only the number, with the unit °C understood.

- Molecule: "CC1=C(C(=O)O)N2C(=O)[C@@H](NC(=O)[C@H](NC(=O)CCCCCN3C(=O)C=CC3=O)c3ccccc3)[C@H]2SC1 [compound 3]"
  Unit name: "°C"
  ΔTm at 50 µM: -0.378
- Molecule: "CC(=O)N[C@@H](C(=O)N[C@@H]1C(=O)N2C(C(=O)O)=C(C)CS[C@H]12)c1ccccc1 [compound 8]"
  Unit name: "°C"
  ΔTm at 50 µM: -0.248
- Molecule: "CC1=C(C(=O)O)N2C(=O)[C@@H](NC(=O)[C@H](NC(=O)OC(C)(C)C)c3ccccc3)[C@H]2SC1 [compound 9]"
  Unit name: "°C"
  ΔTm at 50 µM: -0.809
- Molecule: "C#CCCC(=O)N[C@@H](C(=O)N[C@@H]1C(=O)N2C(C(=O)O)=C(C)CS[C@H]12)c1ccccc1 [compound 4]"
  Unit name: "°C"
  ΔTm at 50 µM: -0.853
- Molecule: "CC1=C(C(=O)O)N2C(=O)[C@@H](NC(=O)[C@H](NC(=O)CCCCN)c3ccccc3)[C@H]2SC1 [compound 10]"
  Unit name: "°C"
  ΔTm at 50 µM: -0.0272
- Molecule: "COCC1=C(C(=O)O)N2C(=O)[C@@H](NC(=O)/C(=N\\OC)c3csc(N)n3)[C@H]2SC1 [compound 12, cefpodoxime]"
  Unit name: "°C"
  ΔTm at 50 µM: -0.695

Now turn to the next molecule.
Data request: # ΔTm at 50 µM lookup, item CC1=C(C(=O)O)N2C(=O)[C@@H](NC(=O)[C@H](NC(=O)CCCC(=O)O)c3ccccc3)[C@H]2SC1 [compound 7]
Data returned: -0.422

* * *

# maps each entry to its ΔTm at 50 µM
Target: PBP4 (Bacillus subtilis, UniProt P32959)
Sequence (P32959 1-451): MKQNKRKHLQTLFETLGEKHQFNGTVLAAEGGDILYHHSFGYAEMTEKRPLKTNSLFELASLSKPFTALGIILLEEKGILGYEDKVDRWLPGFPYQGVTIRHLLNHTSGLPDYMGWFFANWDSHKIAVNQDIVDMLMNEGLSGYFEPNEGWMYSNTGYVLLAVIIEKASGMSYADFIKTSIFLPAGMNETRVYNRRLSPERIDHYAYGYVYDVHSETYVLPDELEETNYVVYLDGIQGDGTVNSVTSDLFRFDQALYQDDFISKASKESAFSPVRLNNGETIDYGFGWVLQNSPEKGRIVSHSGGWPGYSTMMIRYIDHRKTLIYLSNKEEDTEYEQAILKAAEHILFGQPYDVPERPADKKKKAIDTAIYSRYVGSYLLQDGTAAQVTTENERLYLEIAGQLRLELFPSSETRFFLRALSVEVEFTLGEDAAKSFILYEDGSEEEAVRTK
Test: biochemical
Set-up: gene pbpE; commercial protein from Generon; fluorescent dye thermal shift assay, 500 nM PBP4 with 50 uM compound, delta Tm
Settings: read-out: Average DTm/°C
Method: The thermal shift assay was carried out using the Protein Thermal Shift™ assay kit (Applied Biosystems). 3 μM of purified E. coli PBP3 was incubated with the β-lactam analogues at 300 μM concentration in a mixture containing the Protein Thermal Shift™ Dye. […] Melting temperature (Tm) values were determined with and without each compound, and the change in melting temperature (ΔTm) was obtained, Fig. 2. […]
Numbers only; they are read as °C.

# example entries with known answers
- Compound: "CC1=C(C(=O)O)N2C(=O)[C@@H](NC(=O)[C@H](NC(=O)COCC(=O)NCCOCCOCCOCCOCCNC(=O)CCCCCN3C(=O)C=CC3=O)c3ccccc3)[C@H]2SC1 [compound 2]"
  Unit name: "°C"
  ΔTm at 50 µM: -1.95
- Compound: "CC1=C(C(=O)O)N2C(=O)[C@@H](NC(=O)[C@H](NC(=O)CCCCC3CCSS3)c3ccccc3)[C@H]2SC1 (stereo partly shown) [compound 5]"
  Unit name: "°C"
  ΔTm at 50 µM: -0.464
- Compound: "CC1=C(C(=O)O)N2C(=O)[C@@H](NC(=O)[C@H](N)c3ccccc3)[C@H]2SC1 [compound 1, cephalexin]"
  Unit name: "°C"
  ΔTm at 50 µM: -0.882

Now for another entry.
Data request: GET /values?readout=ΔTm at 50 µM&item= CC1=C(C(=O)O)N2C(=O)[C@@H](NC(=O)[C@H](NC(=O)CCCC(=O)ON3C(=O)CCC3=O)c3ccccc3)[C@H]2SC1 [compound 6]
Data returned: -0.708
